- Tested on: Transplanted paddy rice plant
- EXPERIMENTAL_PROTOCOL: Biological Test 1 (treatment on the 3rd day after transplantation): chemical injury to paddy rice
- Format: in vivo
- Design: scale not given here
- RUN_PARAMETERS: Treatment performed 3 days after transplantation; dose 200 g/ha
MEASUREMENT_TYPE: Chemical injury, Transplanted paddy rice plant

- COMPOUND: "Cc1cc(C(=O)C2=C(Sc3ccccc3)CCCC2=O)c(Cl)c2c1S(=O)(=O)CC2"
  MEAS_VALUE: 0
- COMPOUND: "Cc1cc(C(=O)C2=C(SCc3ccccc3)CCCC2=O)c(C)c2c1S(=O)(=O)CCC2OC(C)C (centres unmarked)"
  MEAS_VALUE: 0
- COMPOUND: "O=C1CCCC(Sc2ccccc2O)=C1C(=O)c1ccc2c(c1Cl)CCS2(=O)=O"
  MEAS_VALUE: 0
- COMPOUND: "Cc1c(C(=O)C2=C(S(=O)(=O)c3ccc(Cl)cc3)CCCC2=O)ccc2c1C(=O)C(C)(C)CS2(=O)=O"
  MEAS_VALUE: 4
- COMPOUND: "Cc1cc(C(=O)C2=C(Cl)CCCC2=O)c(C)c2c1S(=O)(=O)CCC2OC(C)C (centres unmarked)"
  MEAS_VALUE: 4

GET /value?item= O=C1CCCC(Cl)=C1C(=O)c1ccc2c(c1Cl)CCS2(=O)=O &field=Chemical injury, Transplanted paddy rice plant returns 0

GET /value?item= Cc1cc(C(=O)C2=C(S(C)(=O)=O)CCCC2=O)c(C)c2c1S(=O)(=O)CCC2OC(C)C (centres unmarked) &field=Chemical injury, Transplanted paddy rice plant returns 1

====

Chemical injury, Transplanted paddy rice plant for assorted compounds
- System: Transplanted paddy rice plant
- EXPERIMENTAL_PROTOCOL: Biological Test 1 (treatment on the 3rd day after transplantation): chemical injury to paddy rice
- Format: in vivo
- Design: scale not given here
- RUN_PARAMETERS: Treatment performed 3 days after transplantation; dose 200 g/ha

Example cases with answers are listed next.
- SMILES_ENTRY: "CO/N=C1\\CCS(=O)(=O)c2ccc(C(=O)C3=C(SC)CCCC3=O)c(C)c21"
  MEAS_VALUE: 0
- SMILES_ENTRY: "CO/N=C1\\CCS(=O)(=O)c2c(C)cc(C(=O)C3=C(Cl)CCCC3=O)c(C)c21"
  MEAS_VALUE: 4
- SMILES_ENTRY: "Cc1c(C(=O)C2=C(Cl)CCCC2=O)ccc2c1CCS2(=O)=O"
  MEAS_VALUE: 0
- SMILES_ENTRY: "CN(C)C1=C(C(=O)c2ccc3c(c2Cl)CCS3(=O)=O)C(=O)CCC1"
  MEAS_VALUE: 0
- SMILES_ENTRY: "CCCS(=O)(=O)C1=C(C(=O)c2cc(C)c3c(c2C)/C(=N/OC)CCS3(=O)=O)C(=O)CCC1"
  MEAS_VALUE: 0

GET /value?item= Cc1c(C(=O)C2=C(Sc3ccc(Cl)cc3)CCCC2=O)ccc2c1C(=O)C(C)(C)CS2(=O)=O &field=Chemical injury, Transplanted paddy rice plant returns 5

GET /value?item= CSC1=C(C(=O)c2ccc3c(c2Cl)CCCS3(=O)=O)C(=O)CCC1 &field=Chemical injury, Transplanted paddy rice plant returns 0

====

- Tested on: Transplanted paddy rice plant
- EXPERIMENTAL_PROTOCOL: Biological Test 1 (treatment on the 3rd day after transplantation): chemical injury to paddy rice
- Assay type: in vivo
- Design: scale not given here
- RUN_PARAMETERS: Treatment performed 3 days after transplantation; dose 200 g/ha
MEASUREMENT_TYPE: Chemical injury, Transplanted paddy rice plant
Just the number, please, no unit after it.

Example cases with answers are listed next.
- COMPOUND: "Cc1cc(C(=O)C2=C(Sc3ccccc3)CCCC2=O)c(C)c2c1S(=O)(=O)CCC2OC(C)C (stereo not drawn)"
  MEAS_VALUE: 0
- COMPOUND: "O=C1CCCC(S(=O)(=O)c2ccccc2)=C1C(=O)c1ccc2c(c1Cl)CCS2(=O)=O"
  MEAS_VALUE: 0
- COMPOUND: "CCCSC1=C(C(=O)c2cc(C)c3c(c2C)/C(=N/OC)CCS3(=O)=O)C(=O)CCC1"
  MEAS_VALUE: 0
- COMPOUND: "COc1ccc(SC2=C(C(=O)c3ccc4c(c3Cl)CCS4(=O)=O)C(=O)CCC2)cc1"
  MEAS_VALUE: 0
- COMPOUND: "Cc1cc(C(=O)C2=C(Cl)CCCC2=O)c(Cl)c2c1S(=O)(=O)CC2"
  MEAS_VALUE: 2
- COMPOUND: "C=CCSC1=C(C(=O)c2ccc3c(c2Cl)CCS3(=O)=O)C(=O)CCC1"
  MEAS_VALUE: 0
- COMPOUND: "CO/N=C1\\CCS(=O)(=O)c2c(C)cc(C(=O)C3=C(Sc4ccc(C)cc4)CCCC3=O)c(C)c21"
  MEAS_VALUE: 0
- COMPOUND: "CC(C)(C)S(=O)(=O)C1=C(C(=O)c2ccc3c(c2Cl)CCS3(=O)=O)C(=O)CCC1"
  MEAS_VALUE: 0

With those in mind, consider the next compound.
GET /value?item= O=C1CCCC(Sc2ccc(Br)cc2)=C1C(=O)c1ccc2c(c1Cl)CCS2(=O)=O &field=Chemical injury, Transplanted paddy rice plant returns 0

Data provenance is patent US20040002425A1.
